System: OVCAR-8 ovarian
assay explanation: NCI-60 one-dose screen, 48 h (100 = growth as untreated, 0 = no growth, -100 = all killed)
recorded conditions: 10 µM unless noted
Compounds without any hit were thinned out: in the full panel of roughly 83,000, 20% have a hit.
Listed next: entries and their corresponding growth.
readout: growth (%)

>>> val("Cc1nc(/N=C(N)/N=C(\\N)c2cccc(Br)c2)sc1C")
58.2
>>> val("COc1cc(C(=O)c2cc(C(C)=O)c3cccc(C)n23)cc(OC)c1OC")
50.8
>>> val("COc1ccccc1Cn1cc(C#N)c(N)c1C(=O)c1ccc(Br)cc1")
98.3
>>> val("C#C[C@]1(O)CC[C@H]2[C@@H]3CC=C4c5sc(Nc6ncccc6C)nc5CC[C@]4(C)[C@H]3CC[C@@]21C")
31.1
>>> val("CN1CCN(Cc2ccc(/C=N/Nc3ccnc4cc(Cl)ccc34)cc2)CC1")
80.1

---

System: OVCAR-4 ovarian
assay explanation: NCI-60 one-dose screen, 48 h (100 = growth as untreated, 0 = no growth, -100 = all killed)
recorded conditions: 10 µM unless noted
About 83,000 compounds went through this panel and 20% of them were active in at least one assay; those are over-represented in the sample as a whole.
readout: growth (%)

>>> val("COc1cc(/C=N\\NC(=O)c2ccc3nc(-c4ccc(Br)cc4)[nH]c3c2)cc(OC)c1OC")
74.1
>>> val("COc1ccc([C@@H]2C(=O)N(c3cc(OC)c(OC)c(OC)c3)[C@H]2c2ccc(OC)c(O)c2)cc1")
58.9
>>> val("C[C@@H]1OCC2(CCN(c3cnc(C(=O)Nc4cc(F)cc5cccnc45)cn3)CC2)[C@@H]1N")
14.8
>>> val("CN1CCN(CC#CCn2c3c(c4ccccc42)C[C@]2(C)[C@H]4CC=C5[C@@H]6CC(C)(C)CC[C@]6(C(=O)N6CCOCC6)CC[C@@]5(C)[C@]4(C)CC[C@H]2C3(C)C)CC1")
88.1
>>> val("COc1ccc(NC2=C(Br)C(=O)C(C)=C(C)C2=O)cc1OC")
14.1
>>> val("Fc1ccc2nc(-c3cnn4cccnc34)sc2c1")
63.5
>>> val("CCC(=C(c1ccc(OCCN(C)C)cc1)c1ccc(OCCN(C)C)cc1)c1ccc(Cl)cc1")
-20.1
>>> val("CCCCCCCCCCCC(=O)NC(C)(C)C(=O)N1CCCC1C(=O)NC(C)(C)C(=O)NC(C)(C)C(=O)N1CCCC1C(=O)NC(C)(C)C(=O)NC(C)(C)C(=O)N1CCCC1C(=O)NC(C)C(=O)NCCC(=O)NC(C)C(=O)NC(C)(C)C(=O)NC(C)(C)C(=O)NC(C)(C)C(=O)NCCC(=O)NC(C)(C)C(=O)NC(C)(C)C(=O)NC(C)(C)C(=O)NC(C)C(=O)NCCC(=O)O (stereo not given)")
-94.5
>>> val("COc1cc2oc(-c3cccc(NC(=O)[C@@H](N)C(C)C)c3)cc(=O)c2c(OC)c1OC")
107
>>> val("Cc1ccc(-c2cc3nc(C(Cl)Cl)nc(-c4ccc(S(=O)(=O)N(C)C)cc4)n3n2)cc1")
94.3
>>> val("Cc1[nH]c(C(=O)Nc2ccccc2OCc2cccc(C(=O)NCCN)c2)cc1Cl")
102
>>> val("O=C(CSc1nnc(-c2cccs2)n1-c1ccccc1)Nc1ccccc1F")
95.1
>>> val("COc1ccc(C(C)=C(c2ccc(OCCN3CCCCCC3)cc2)c2ccc(OCCN3CCCCCC3)cc2)cc1")
-66.7
>>> val("Cn1cc(-c2nn3cc(-c4ccncc4)nc3s2)c2cc(F)ccc21")
72.8
>>> val("O=S1SC(c2ccccc2)=NN1c1cc(F)cc(F)c1 (stereo not given)")
49.3
>>> val("COC(=O)c1cccc(NC2=C(Cl)C(=O)c3nc(C)ccc3C2=O)c1")
-97.6
>>> val("COc1ccc(-c2cnc(NC(=O)CCCCCCNC(=O)C(O)(O)C(F)(F)F)s2)cc1")
-9.83
>>> val("O=c1c2ccccc2cc2n1CCN=C2c1ccccc1")
97.7
>>> val("COc1ccc(C2CC(c3cccc(OCCCCOc4cccc(C5=NOC(c6ccc(OC)cc6)C5)c4)c3)=NO2)cc1 (stereo not given)")
90.3
>>> val("COc1ccccc1Cn1cc(C#N)c(N)c1C(=O)c1ccc(Br)cc1")
73.8
>>> val("CN1CCN(CCCCCC(=O)Nc2nc(-c3cccc(NS(=O)(=O)c4cccc5c(N(C)C)cccc45)c3)cs2)CC1")
89.6
>>> val("O=C(/C=C/c1cccc(Br)c1)c1cccc(OCCCCOc2cccc(C(=O)/C=C/c3cccc(Br)c3)c2)c1")
109
>>> val("COc1ccc(-c2nc(C#N)c(N3CCC(S(=O)(=O)N4CCOCC4)CC3)o2)cc1")
97.8
>>> val("CC1=C(C)C(=O)C(Nc2cccc(C)c2)=C(Br)C1=O")
69.3
>>> val("CNC(=O)c1cc(-n2ccc3cc(NC(=O)Nc4ccc(N5CCN(C)CC5)c(C(F)(F)F)c4)ccc32)ccn1")
84.5
>>> val("Cc1[nH]c(C(=O)Nc2ccc(S(=O)(=O)N3CCCCC3)cc2OCCOCCOCCOCCOCCOCCOCCOCCOCCOc2cc(S(=O)(=O)N3CCCCC3)ccc2NC(=O)c2[nH]c(C)c3c2CCCCC3=O)c2c1C(=O)CCCC2")
12.5
>>> val("O=C(/C=C/c1ccc(Cl)c(Cl)c1)Nc1ncc(Cc2ccc(Cl)c(Cl)c2)s1")
34
>>> val("Cc1csc(/N=C(N)/N=C(\\N)c2cccnc2)n1")
98.9
>>> val("O=C(NNc1nc2cc(F)cc(F)c2n2cccc12)c1cccnn1")
4.96
>>> val("NC1[C@H]2CN(c3cnc(C(=O)Nc4cc(F)cc5cccnc45)cn3)C[C@@H]12 (stereo not given in full)")
17.4
>>> val("O=C1[C@H]2Cc3c([nH]c4ccccc34)[C@H](c3ccc(Br)cc3)N2C(=O)CN1C1CCN(CC2CCCCC2)CC1")
82.7
>>> val("CCCCCC[n+]1ccc(SCC(=O)n2ccc3ccccc32)c2ccccc21")
58.6
>>> val("Cc1ccc(S(=O)(=O)NCCCNc2nc(Nc3ccc(N4CCN(C)CC4)cc3)nc3ccsc23)cc1")
23.7
>>> val("Clc1ccc(CSc2nnc(-c3ccc(Cl)cc3)n2-c2ccccc2)cc1")
16
>>> val("Clc1ccc2[nH]cc(-c3cncn3CCc3ccc4c(c3)OCO4)c2c1")
33
